So I've got a bunch of compounds here, and I need their EC50 values.
targetOrTestSystem: human M1 (Homo sapiens)
Construct: expressed in transfected cells; host or cells: CHO cells
assayMethodText: M1 PAM assay (FLIPR intracellular calcium), human M1
Format: cell-based
Record the result as a number with its unit.

O=C(N[C@H]1CCCC[C@@H]1O)c1cn(Cc2ccc(F)cc2)c2cccc(F)c12 :: 110 nM

Can you give me EC50 for all of these, one by one?
1. N#Cc1cccc(Cn2cc(C(=O)N[C@H]3CCCC[C@@H]3O)c3c(F)cccc32)c1
2. N#Cc1ccc(Cn2cc(C(=O)N[C@H]3CCOC[C@@H]3O)c3c(F)cccc32)cc1 (racemic) [Example 16]

["476 nM", "237 nM"]

Record request: EC50 value, item `Cn1ncc2cc(Cn3cc(C(=O)N[C@H]4CCCC[C@@H]4O)c4c(F)cccc43)ccc21`
43.8 nM

* * *

targetOrTestSystem: human M1 (Homo sapiens, UniProt P11229)
Construct: expressed in transfected cells; host or cells: CHO cells
assayMethodText: M1 PAM assay (FLIPR intracellular calcium), human M1
Type: cell-based
protocolConditions: CHO human M1 cells, FLIPR Ca2+, with EC20 of acetylcholine; first value of the cell; read-out: hM1 EC50
assayReadout: pEC50
Numbers only, as −log10 of the molar value.

NC(=O)Cc1ccc(Cn2cc(C(=O)N[C@H]3CCCC[C@@H]3O)c3c(F)cccc32)cc1 :: 6.96
O=C(N[C@H]1CCCC[C@@H]1O)c1cn(Cc2ccc(-c3ccccc3)nc2)c2cccc(F)c12 :: 7.44

Can you give me pEC50 for all of these, one by one?
1. Cn1cc(-c2ccc(Cn3cc(C(=O)N[C@H]4CCOC[C@@H]4O)c4c(F)ccc(C5CC5)c43)cc2)cn1
2. Cn1cc(-c2ccc(Cn3cc(C(=O)N[C@H]4CCCC[C@@H]4O)c4c(F)cccc43)cc2)cn1
3. CCc1ccc(F)c2c(C(=O)NC3CCOCC3)cn(Cc3ccc(-c4cnn(C)c4)cc3)c12
4. O=C(N[C@H]1CCCC[C@@H]1O)c1cn(Cc2ccc(-c3ccccc3)cn2)c2cccc(F)c12
5. Cn1cc(-c2ccc(Cn3nc(C(=O)N[C@H]4CCCC[C@@H]4O)c4c(F)ccc(F)c43)cn2)cn1

1. 6.72
2. 8.22
3. 6.38
4. 6.99
5. 7.40

Can you give me pEC50 for all of these, one by one?
1. Cn1cc(-c2ccc(Cn3nc(C(=O)N[C@H]4CCCC[C@@H]4O)c4c(F)cccc43)c(F)c2)cn1
2. CNC(=O)c1ccc(Cn2cc(C(=O)NC3CCCOC3)c3c(F)cccc32)cc1 (stereo not shown)
3. Cn1cc(-c2ccc(Cn3cc(C(=O)N[C@H]4CCCC[C@@H]4O)c4c(F)c(F)c(F)c(F)c43)c(F)c2)cn1
4. O=C(N[C@H]1CCOC[C@@H]1O)c1cn(Cc2ccc(N3CCCC3=O)cc2)c2cccc(F)c12
5. CNC(=O)c1ccc(Cn2cc(C(=O)NC3CCSCC3)c3c(F)cccc32)cc1F
6. CNC(=O)c1ccc(Cn2cc(C(=O)NC3CCCCC3(F)F)c3c(F)cccc32)cc1 (stereo not shown)
7. O=C(N[C@H]1CCCC[C@@H]1O)c1cn(Cc2ccc(-c3nc[nH]n3)cc2)c2cccc(F)c12

1. 7.60
2. 7.21
3. 7.09
4. 6.74
5. 7.33
6. 7.82
7. 8.52

Can you give me pEC50 for all of these, one by one?
1. CNC(=O)c1ccc(Cn2cc(C(=O)NC3CCOCC3C)c3c(F)cccc32)cc1 (stereo not shown)
2. Cn1cc(-c2cccc(Cn3cc(C(=O)N[C@H]4CCCC[C@@H]4O)c4c(F)cccc43)c2)cn1

[7.72, 6.65]

* * *

targetOrTestSystem: human M1 (Homo sapiens)
Construct: expressed in transfected cells; host or cells: CHO cells
Sequence (P11229 1-460): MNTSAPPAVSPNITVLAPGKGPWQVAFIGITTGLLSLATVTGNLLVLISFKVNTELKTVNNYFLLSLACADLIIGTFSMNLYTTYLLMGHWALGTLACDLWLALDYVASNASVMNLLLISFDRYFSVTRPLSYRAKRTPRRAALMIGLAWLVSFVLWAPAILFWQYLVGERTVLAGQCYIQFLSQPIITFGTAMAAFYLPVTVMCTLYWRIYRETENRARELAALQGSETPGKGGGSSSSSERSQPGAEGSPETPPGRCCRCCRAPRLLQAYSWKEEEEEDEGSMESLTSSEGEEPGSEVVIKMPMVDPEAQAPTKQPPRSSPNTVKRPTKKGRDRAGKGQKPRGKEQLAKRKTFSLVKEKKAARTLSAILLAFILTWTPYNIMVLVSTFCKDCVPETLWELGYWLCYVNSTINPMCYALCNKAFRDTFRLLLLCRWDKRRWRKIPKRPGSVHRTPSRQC
assayMethodText: M1 PAM assay (FLIPR intracellular calcium), human M1
Type: cell-based
protocolConditions: CHO human M1 cells, FLIPR Ca2+, with EC20 of acetylcholine; first value of the cell; read-out: hM1 EC50
assayReadout: pEC50
One number for each entry, as −log10 of the molar value.

Completed entries (count: 2):
Cn1cc(-c2ccc(Cn3cc(C(=O)N[C@H]4CCOC[C@@H]4O)c4c(F)c(F)c(F)c(F)c43)c(F)c2)cn1 (single isomer, unassigned) :: 7.26
CNC(=O)c1cccc(Cn2cc(C(=O)N[C@H]3CCCC[C@@H]3O)c3c(F)cccc32)c1 :: 6.50

Can you give me pEC50 for all of these, one by one?
1. O=C(N[C@H]1CCCC[C@@H]1O)c1cn(Cc2ccc(-c3ncccn3)cc2)c2cccc(F)c12
2. O=C(N[C@H]1CCCC[C@@H]1O)c1cn(Cc2cnc(-c3ccccc3)nc2)c2cccc(F)c12
3. Cn1cc(-c2ccc(Cn3cc(C(=O)NCC4(O)CC4)c4c(F)cccc43)c(F)c2)cn1
4. O=C(N[C@H]1CCCC[C@@H]1O)c1cn(Cc2ccc(-c3cncnc3)cc2)c2cccc(F)c12
5. Cc1ccc(F)c2c(C(=O)N[C@H]3CCCC[C@@H]3O)cn(Cc3ccc(-c4cnn(C)c4)cc3F)c12

7.01
6.37
6.33
7.64
7.44

* * *

So I've got a bunch of compounds here, and I need their EC50 values.
targetOrTestSystem: ratM1 (Rattus norvegicus)
Construct: expressed in transfected cells; host or cells: CHO cells (stated generally for the assay, not specifically for rat M1)
Sequence (P08482 whole entry): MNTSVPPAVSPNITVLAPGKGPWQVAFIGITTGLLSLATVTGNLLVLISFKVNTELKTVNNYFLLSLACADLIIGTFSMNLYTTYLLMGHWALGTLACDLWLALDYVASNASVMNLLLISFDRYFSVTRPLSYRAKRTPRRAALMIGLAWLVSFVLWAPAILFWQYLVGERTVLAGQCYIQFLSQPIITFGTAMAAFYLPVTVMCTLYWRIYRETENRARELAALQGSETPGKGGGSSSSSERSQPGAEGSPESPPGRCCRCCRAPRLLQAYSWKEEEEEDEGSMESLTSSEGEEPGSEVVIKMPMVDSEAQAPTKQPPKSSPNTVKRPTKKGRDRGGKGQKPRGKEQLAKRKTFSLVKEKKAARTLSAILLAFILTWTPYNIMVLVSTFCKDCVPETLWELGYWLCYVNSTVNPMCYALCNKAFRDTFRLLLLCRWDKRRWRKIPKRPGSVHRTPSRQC
assayMethodText: M1 PAM assay (FLIPR intracellular calcium), rat M1
Assay type: cell-based

Completed entries (count: 3):
N#Cc1ccc(Cn2cc(C(=O)N[C@H]3CCOC[C@@H]3O)c3c(F)cccc32)cc1 (racemic) [Example 16] :: 0.337 µM
Cn1ncc2cc(Cn3cc(C(=O)NC4CCOCC4)c4c(F)cccc43)ccc21 :: 0.412 µM
Cc1ccc(F)c2c(C(=O)NC3CCOCC3)cn(Cc3ccc4c(cnn4C)c3)c12 :: 0.076 µM

Can you give me EC50 for all of these, one by one?
1. O=C(N[C@H]1CCCC[C@@H]1O)c1cn(Cc2ccc(F)c(F)c2)c2cccc(F)c12
2. O=C(N[C@H]1CCCC[C@@H]1O)c1cn(Cc2ccc(F)cc2)c2cccc(F)c12
3. Cn1ncc2cc(Cn3cc(C(=O)N[C@H]4CCOC[C@@H]4O)c4c(F)cccc43)ccc21 (single isomer, unassigned)
4. O=C(N[C@H]1CCCC[C@@H]1O)c1cn(Cc2ccccc2)c2cccc(F)c12
5. Cn1ncc2cc(Cn3cc(C(=O)NC4CCOCC4)c4c(F)ccc(F)c43)ccc21

1. 0.456 µM
2. 0.2 µM
3. 0.027 µM
4. 0.393 µM
5. 0.141 µM

Can you give me EC50 for all of these, one by one?
1. COc1ccc(Cn2cc(C(=O)N[C@H]3CCCC[C@@H]3O)c3c(F)cccc32)cc1F
2. O=C(N[C@H]1CCCC[C@@H]1O)c1cn(Cc2ccc3nccn3c2)c2cccc(F)c12
3. CCc1ccc(F)c2c(C(=O)NC3CCOCC3)cn(Cc3ccc4c(cnn4C)c3)c12
4. O=C(N[C@H]1CCCC[C@@H]1O)c1cn(Cc2ccc(Cl)cc2)c2cccc(F)c12
5. COc1ccc(F)c2c(C(=O)NC3CCOCC3)cn(Cc3ccc4c(cnn4C)c3)c12
6. N#Cc1ccc(Cn2cc(C(=O)N[C@H]3CCCC[C@@H]3O)c3c(F)cccc32)cc1

0.222 µM
0.036 µM
1.24 µM
0.382 µM
0.837 µM
0.223 µM

Can you give me EC50 for all of these, one by one?
1. COc1ccc(Cn2cc(C(=O)N[C@H]3CCCC[C@@H]3O)c3c(F)cccc32)cc1
2. O=C(N[C@H]1CCCC[C@@H]1O)c1cn(Cc2ccn3ccnc3c2)c2cccc(F)c12

0.16 µM
0.172 µM

Can you give me EC50 for all of these, one by one?
1. O=C(N[C@H]1CCCC[C@@H]1O)c1cn(Cc2cc(F)cc(F)c2)c2cccc(F)c12
2. Cn1cnc2cc(Cn3cc(C(=O)N[C@H]4CCCC[C@@H]4O)c4c(F)cccc43)ccc21

0.632 µM
0.285 µM

Can you give me EC50 for all of these, one by one?
1. Cn1ncc2cc(Cn3cc(C(=O)N[C@H]4CCCC[C@@H]4O)c4c(F)cccc43)ccc21
2. N#Cc1ccc(Cn2cc(C(=O)N[C@H]3CCOC[C@@H]3O)c3c(F)cccc32)cc1 (single isomer, unassigned) [Example 54]

["0.0395 µM", "0.122 µM"]

Reference source: patent US9708259B2
